What ALP was measured for each of the following?
# Organism: Rattus norvegicus
# measurement-notes: Open TG-GATES - Regimen: Daily Repeat
# Format: toxicity, organism-based, Sprague-Dawley
# Design: regimen Daily Repeat, gender Male, age 6 weeks
# measurement-conditions: in vivo, po, 0 mg/kg, […], tissue Plasma, route gavage, dose level Control, time 14 day
Answers are plain numbers, in IU/L.

Illustrative cases are given below, each with its answer.
{"compound": "COc1ccc(O)c(C(C)(C)C)c1.COc1ccc(O)cc1C(C)(C)C [BUTYLATED HYDROXYANISOLE]", "ALP / IU/L": 1384.2}
{"compound": "O=C1CN(/N=C/c2ccc(-c3ccc([N+](=O)[O-])cc3)o2)C(O)=N1", "ALP / IU/L": 833.2}
{"compound": "O=P1(N(CCCl)CCCl)NCCCO1 (stereo not given) [CYCLOPHOSPHAMIDE ANHYDROUS]", "ALP / IU/L": 1394.4}

# batch size: 2; output ALP per entry
1. Cn1c(=O)c2c(ncn2C)n(C)c1=O
2. CS(=O)(=O)Nc1ccc([N+](=O)[O-])cc1Oc1ccccc1 [NIMESULIDE]

1: 1572.4; 2: 898.6

----------
# Organism: Rattus norvegicus
# measurement-notes: Open TG-GATES - Regimen: Single
# Format: toxicity, organism-based, Sprague-Dawley
# Parameters: regimen Single, gender Male, age 6 weeks
# measurement-conditions: in vivo, po, 0 mg/kg, 24 h, tissue Kidney, route gavage, dose level Control
assay-metric: KIDNEY_L (g)
Numbers only, in g.

{"molecule": "CS(=O)(=O)Nc1ccc([N+](=O)[O-])cc1Oc1ccccc1 [NIMESULIDE]", "result-value": 1}
{"molecule": "O=C1CN(/N=C/c2ccc(-c3ccc([N+](=O)[O-])cc3)o2)C(O)=N1", "result-value": 1}
{"molecule": "CNCCC(Oc1ccc(C(F)(F)F)cc1)c1ccccc1.Cl (configuration not stated) [FLUOXETINE HYDROCHLORIDE]", "result-value": 1}
{"molecule": "Cc1cnc(NC(=O)C2=C(O)c3ccccc3S(=O)(=O)N2C)s1", "result-value": 1}
{"molecule": "COc1ccc(O)c(C(C)(C)C)c1.COc1ccc(O)cc1C(C)(C)C [BUTYLATED HYDROXYANISOLE]", "result-value": 0.9}

# batch size: 3; output KIDNEY_L per entry
1. Cc1cccc(Nc2cc(Cl)nc(SCC(=O)O)n2)c1C
2. S=C=Nc1cccc2ccccc12 [1-NAPHTHYLISOTHIOCYANATE]
3. Cn1cnc([N+](=O)[O-])c1Sc1ncnc2nc[nH]c12

[0.9, 1, 0.9]

# batch size: 4; output KIDNEY_L per entry
1. COc1ccc(Cl)cc1C(=O)NCCc1ccc(S(=O)(=O)NC(=O)NC2CCCCC2)cc1 [GLYBURIDE]
2. O=C1NC(=O)C(c2ccccc2)(c2ccccc2)N1
3. O=P1(N(CCCl)CCCl)NCCCO1 (configuration not stated) [CYCLOPHOSPHAMIDE ANHYDROUS]
4. C=CCO

[1, 1, 0.9, 0.9]

----------
# Species on record: Rattus norvegicus
# measurement-notes: Open TG-GATES - Regimen: Daily Repeat
# Type: toxicity, organism-based, Sprague-Dawley
# Parameters: regimen Daily Repeat, gender Male, age 6 weeks
# measurement-conditions: in vivo, po, 0 mg/kg, […], tissue Plasma, route gavage, dose level Control, time 7 day
What ALT was measured for each of the following?
Answers are plain numbers, in IU/L.

{"compound": "COc1ccc(O)c(C(C)(C)C)c1.COc1ccc(O)cc1C(C)(C)C [BUTYLATED HYDROXYANISOLE]", "unit": "IU/L", "result-value": 44.4}
{"compound": "O=P1(N(CCCl)CCCl)NCCCO1 (stereo unspecified) [CYCLOPHOSPHAMIDE ANHYDROUS]", "unit": "IU/L", "result-value": 44.8}
{"compound": "Cc1cnc(NC(=O)C2=C(O)c3ccccc3S(=O)(=O)N2C)s1", "unit": "IU/L", "result-value": 33.8}
{"compound": "CS(=O)(=O)Nc1ccc([N+](=O)[O-])cc1Oc1ccccc1 [NIMESULIDE]", "unit": "IU/L", "result-value": 35.4}
{"compound": "O=C1CN(/N=C/c2ccc(-c3ccc([N+](=O)[O-])cc3)o2)C(O)=N1", "unit": "IU/L", "result-value": 33.4}

# batch size: 2; output ALT per entry
1. Cn1cnc([N+](=O)[O-])c1Sc1ncnc2nc[nH]c12
2. Cc1cccc(Nc2cc(Cl)nc(SCC(=O)O)n2)c1C

42.4
48.8

----------
# Organism: Rattus norvegicus
# measurement-notes: Open TG-GATES - Regimen: Daily Repeat
# Assay type: toxicity, organism-based, Sprague-Dawley
# Set-up: regimen Daily Repeat, gender Male, age 6 weeks
# measurement-conditions: in vivo, po, 0 mg/kg, 72 h, tissue Plasma, route gavage, dose level Control, time 3 day
assay-metric: Ca (mg/dL)
Answers are plain numbers, in mg/dL.

Illustrative cases are given below, each with its answer.
{"compound": "O=C1CN(/N=C/c2ccc(-c3ccc([N+](=O)[O-])cc3)o2)C(O)=N1", "result-value": 10.9}
{"compound": "O=P1(N(CCCl)CCCl)NCCCO1 (centres undefined) [CYCLOPHOSPHAMIDE ANHYDROUS]", "result-value": 10.8}
{"compound": "Cc1cccc(Nc2cc(Cl)nc(SCC(=O)O)n2)c1C", "result-value": 10.8}
{"compound": "Cn1c(=O)c2c(ncn2C)n(C)c1=O", "result-value": 10.9}
{"compound": "COc1ccc(Cl)cc1C(=O)NCCc1ccc(S(=O)(=O)NC(=O)NC2CCCCC2)cc1 [GLYBURIDE]", "result-value": 10.9}
{"compound": "Cn1cnc([N+](=O)[O-])c1Sc1ncnc2nc[nH]c12", "result-value": 11.2}

# batch size: 3; output Ca per entry
1. COc1ccc(O)c(C(C)(C)C)c1.COc1ccc(O)cc1C(C)(C)C [BUTYLATED HYDROXYANISOLE]
2. C=CCO
3. CS(=O)(=O)Nc1ccc([N+](=O)[O-])cc1Oc1ccccc1 [NIMESULIDE]

[11.2, 10.7, 10.7]

----------
# Organism: Rattus norvegicus
# measurement-notes: Open TG-GATES - Regimen: Daily Repeat
# Assay type: toxicity, organism-based, Sprague-Dawley
# Set-up: regimen Daily Repeat, gender Male, age 6 weeks
# measurement-conditions: in vivo, po, 0 mg/kg, […], tissue Plasma, route gavage, dose level Control, time 14 day
What RALB was measured for each of the following?
One number for each entry, in g/dL.

Illustrative cases are given below, each with its answer.
{"compound": "C=CCO [ALLYL ALCOHOL]", "result-value": 3.4}
{"compound": "COc1ccc(Cl)cc1C(=O)NCCc1ccc(S(=O)(=O)NC(=O)NC2CCCCC2)cc1 [GLYBURIDE]", "result-value": 3.6}
{"compound": "Cc1cnc(NC(=O)C2=C(O)c3ccccc3S(=O)(=O)N2C)s1 [MELOXICAM]", "result-value": 3.6}
{"compound": "CS(=O)(=O)Nc1ccc([N+](=O)[O-])cc1Oc1ccccc1 [NIMESULIDE]", "result-value": 4}
{"compound": "Cn1c(=O)c2c(ncn2C)n(C)c1=O [CAFFEINE]", "result-value": 3}

# batch size: 2; output RALB per entry
1. O=C1NC(=O)C(c2ccccc2)(c2ccccc2)N1 [PHENYTOIN]
2. O=C1CN(/N=C/c2ccc(-c3ccc([N+](=O)[O-])cc3)o2)C(O)=N1 [DANTROLENE]

[3, 3.9]

----------
# Species: Rattus norvegicus
# measurement-notes: Open TG-GATES - Regimen: Single
# Type: toxicity, organism-based, Sprague-Dawley
# Parameters: regimen Single, gender Male, age 6 weeks
# measurement-conditions: in vivo, po, 0 mg/kg, 24 h, tissue Blood, route gavage, dose level Control
assay-metric: Hb
The number alone won't do; follow it with the unit.

# batch size: 5; output Hb per entry
1. CS(=O)(=O)Nc1ccc([N+](=O)[O-])cc1Oc1ccccc1 [NIMESULIDE]
2. Cn1cnc([N+](=O)[O-])c1Sc1ncnc2nc[nH]c12
3. COc1ccc(O)c(C(C)(C)C)c1.COc1ccc(O)cc1C(C)(C)C [BUTYLATED HYDROXYANISOLE]
4. O=C1NC(=O)C(c2ccccc2)(c2ccccc2)N1
5. C=CCO

1: 13.1 g/dL; 2: 13.5 g/dL; 3: 13 g/dL; 4: 13.2 g/dL; 5: 13.1 g/dL

----------
# Species: Rattus norvegicus
# measurement-notes: Open TG-GATES - Regimen: Single
# Assay type: toxicity, organism-based, Sprague-Dawley
# Design: regimen Single, gender Male, age 6 weeks
# measurement-conditions: in vivo, po, 0 mg/kg, 24 h, tissue Blood, route gavage, dose level Control
assay-metric: Mono (%)
Give bare numbers, in %.

{"compound": "COc1ccc(Cl)cc1C(=O)NCCc1ccc(S(=O)(=O)NC(=O)NC2CCCCC2)cc1 [GLYBURIDE]", "Mono, %": 2.4}

# batch size: 4; output Mono per entry
1. C=CCO
2. S=C=Nc1cccc2ccccc12 [1-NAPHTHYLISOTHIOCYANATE]
3. O=C1CN(/N=C/c2ccc(-c3ccc([N+](=O)[O-])cc3)o2)C(O)=N1
4. COc1ccc(O)c(C(C)(C)C)c1.COc1ccc(O)cc1C(C)(C)C [BUTYLATED HYDROXYANISOLE]

3
3
9.4
2.3

These measurements were taken from ChEMBL document CHEMBL3885861.
